Entry source: ChEMBL document CHEMBL1772948

- System: Toxoplasma gondii
- MEASUREMENT_NOTES: Antiparasitic activity against yellow fluorescent protein expressing Toxoplasma gondii 2F-1 treated 6 hrs after infection for 42 hrs followed by reinoculated into fresh HFF monolayers measured after 48 hrs
- Assay type: functional, organism-based
MEASURED_PROPERTY: IC50 (nM)

{"RECORD_SMILES": "CC[C@H]1OC(=O)[C@H](C)[C@@H](O[C@H]2C[C@@](C)(OC)[C@@H](O)[C@H](C)O2)[C@H](C)[C@@H](O[C@@H]2O[C@H](C)C[C@H](N(C)C)[C@H]2O)[C@](C)(O)C[C@@H](C)CN(Cc2ccccc2)[C@H](C)[C@@H](O)[C@]1(C)O", "TARGET_OR_SYSTEM": "Toxoplasma gondii", "MEASURED_PROPERTY": "IC50", "UNIT_DESCRIPTOR": "nM", "CENSORING_OPERATOR": "=", "RESULT_VALUE": 500}
{"RECORD_SMILES": "CC[C@H]1OC(=O)[C@H](C)[C@@H](O[C@H]2C[C@@](C)(OC)[C@@H](O)[C@H](C)O2)[C@H](C)[C@@H](O[C@@H]2O[C@H](C)C[C@H](N(C)C)[C@H]2O)[C@](C)(O)C[C@@H](C)CN(Cc2ccc(C)cc2)[C@H](C)[C@@H](O)[C@]1(C)O", "TARGET_OR_SYSTEM": "Toxoplasma gondii", "MEASURED_PROPERTY": "IC50", "UNIT_DESCRIPTOR": "nM", "CENSORING_OPERATOR": "=", "RESULT_VALUE": 700}
{"RECORD_SMILES": "C=CCO[C@]1(C)C[C@@H](C)CN(Cc2ccccc2)[C@H](C)[C@@H](O)[C@](C)(O)[C@@H](CC)OC(=O)[C@H](C)[C@@H](O[C@H]2C[C@@](C)(OC)[C@@H](O)[C@H](C)O2)[C@H](C)[C@H]1O[C@@H]1O[C@H](C)C[C@H](N(C)C)[C@H]1O", "TARGET_OR_SYSTEM": "Toxoplasma gondii", "MEASURED_PROPERTY": "IC50", "UNIT_DESCRIPTOR": "nM", "CENSORING_OPERATOR": ">", "RESULT_VALUE": 10000}
{"RECORD_SMILES": "CC[C@H]1OC(=O)[C@H](C)[C@@H](O[C@H]2C[C@@](C)(OC)[C@@H](O)[C@H](C)O2)[C@H](C)[C@@H](O[C@@H]2O[C@H](C)C[C@H](N(C)C)[C@H]2O)[C@](C)(O)C[C@@H](C)CN(CCCc2ccccc2)[C@H](C)[C@@H](O)[C@]1(C)O", "TARGET_OR_SYSTEM": "Toxoplasma gondii", "MEASURED_PROPERTY": "IC50", "UNIT_DESCRIPTOR": "nM", "CENSORING_OPERATOR": "=", "RESULT_VALUE": 600}

###

- Tested on: Toxoplasma gondii
- MEASUREMENT_NOTES: Antiparasitic activity against Toxoplasma gondii 2F-1 expressing yellow fluorescent protein infected in HFF after 4 days
- Format: functional, organism-based
- DETAILS: 2F-1, 96 h

{"RECORD_SMILES": "CC[C@H]1OC(=O)[C@H](C)[C@@H](O[C@H]2C[C@@](C)(OC)[C@@H](O)[C@H](C)O2)[C@H](C)[C@@H](O[C@@H]2O[C@H](C)C[C@H](N(C)C)[C@H]2O)[C@](C)(OC)C[C@@H](C)CN(Cc2ccccc2)[C@H](C)[C@@H](O)[C@]1(C)O", "IC50": "2 µM"}
{"RECORD_SMILES": "CCNC(=O)N1C[C@H](C)C[C@@](C)(O)[C@H](O[C@@H]2O[C@H](C)C[C@H](N(C)C)[C@H]2O)[C@@H](C)[C@H](O[C@H]2C[C@@](C)(OC)[C@@H](O)[C@H](C)O2)[C@@H](C)C(=O)O[C@H](CC)[C@@](C)(O)[C@H](O)[C@H]1C", "IC50": "85 µM"}
{"RECORD_SMILES": "CCCN1C[C@H](C)C[C@@](C)(O)[C@H](O[C@@H]2O[C@H](C)C[C@H](N(C)C)[C@H]2O)[C@@H](C)[C@H](O[C@H]2C[C@@](C)(OC)[C@@H](O)[C@H](C)O2)[C@@H](C)C(=O)O[C@H](CC)[C@@](C)(O)[C@H](O)[C@H]1C", "IC50": "16 µM"}
{"RECORD_SMILES": "CC[C@H]1OC(=O)[C@H](C)[C@@H](O[C@H]2C[C@@](C)(OC)[C@@H](O)[C@H](C)O2)[C@H](C)[C@@H](O[C@@H]2O[C@H](C)C[C@H](N(C)C)[C@H]2O)[C@](C)(OC)C[C@@H](C)CN(C)[C@H](C)[C@@H](O)[C@]1(C)O", "IC50": "89 µM"}
{"RECORD_SMILES": "CC[C@H]1OC(=O)[C@H](C)[C@@H](O[C@H]2C[C@@](C)(OC)[C@@H](O)[C@H](C)O2)[C@H](C)[C@@H](O[C@@H]2O[C@H](C)C[C@H](N(C)C)[C@H]2O)[C@](C)(O)C[C@@H](C)C(=O)[C@H](C)[C@@H](O)[C@]1(C)O", "IC50": "93 µM"}
{"RECORD_SMILES": "CC[C@H]1OC(=O)[C@H](C)[C@@H](O[C@H]2C[C@@](C)(OC)[C@@H](O)[C@H](C)O2)[C@H](C)[C@@H](O[C@@H]2O[C@H](C)C[C@H](N(C)C)[C@H]2O)[C@](C)(O)C[C@@H](C)CN(Cc2ccccc2)[C@H](C)[C@@H](O)[C@]1(C)O", "IC50": "2 µM"}
{"RECORD_SMILES": "CC[C@H]1OC(=O)[C@H](C)[C@@H](O[C@H]2C[C@@](C)(OC)[C@@H](O)[C@H](C)O2)[C@H](C)[C@@H](O[C@@H]2O[C@H](C)C[C@H](N(C)C)[C@H]2O)[C@](C)(O)C[C@@H](C)/C(=N\\OC)[C@H](C)[C@@H](O)[C@]1(C)O", "IC50": "14 µM"}
{"RECORD_SMILES": "C=CCN1C[C@H](C)C[C@@](C)(O)[C@H](O[C@@H]2O[C@H](C)C[C@H](N(C)C)[C@H]2O)[C@@H](C)[C@H](O[C@H]2C[C@@](C)(OC)[C@@H](O)[C@H](C)O2)[C@@H](C)C(=O)O[C@H](CC)[C@@](C)(O)[C@H](O)[C@H]1C", "IC50": "13 µM"}
{"RECORD_SMILES": "C=CCN1C[C@H](C)C[C@@](C)(OC)[C@H](O[C@@H]2O[C@H](C)C[C@H](N(C)C)[C@H]2O)[C@@H](C)[C@H](O[C@H]2C[C@@](C)(OC)[C@@H](O)[C@H](C)O2)[C@@H](C)C(=O)O[C@H](CC)[C@@](C)(O)[C@H](O)[C@H]1C", "IC50": "13 µM"}
{"RECORD_SMILES": "CCNC(=O)N1C[C@H](C)C[C@@](C)(OC)[C@H](O[C@@H]2O[C@H](C)C[C@H](N(C)C)[C@H]2O)[C@@H](C)[C@H](O[C@H]2C[C@@](C)(OC)[C@@H](O)[C@H](C)O2)[C@@H](C)C(=O)O[C@H](CC)[C@@](C)(O)[C@H](O)[C@H]1C", "IC50": "59 µM"}
{"RECORD_SMILES": "C=CCO/N=C1\\[C@H](C)C[C@@](C)(O)[C@H](O[C@@H]2O[C@H](C)C[C@H](N(C)C)[C@H]2O)[C@@H](C)[C@H](O[C@H]2C[C@@](C)(OC)[C@@H](O)[C@H](C)O2)[C@@H](C)C(=O)O[C@H](CC)[C@@](C)(O)[C@H](O)[C@H]1C", "IC50": "2.7 µM"}
{"RECORD_SMILES": "CCCN1C[C@H](C)C[C@@](C)(OC)[C@H](O[C@@H]2O[C@H](C)C[C@H](N(C)C)[C@H]2O)[C@@H](C)[C@H](O[C@H]2C[C@@](C)(OC)[C@@H](O)[C@H](C)O2)[C@@H](C)C(=O)O[C@H](CC)[C@@](C)(O)[C@H](O)[C@H]1C", "IC50": "20 µM"}
{"RECORD_SMILES": "CC[C@H]1OC(=O)[C@H](C)[C@@H](O[C@H]2C[C@@](C)(OC)[C@@H](O)[C@H](C)O2)[C@H](C)[C@@H](O[C@@H]2O[C@H](C)C[C@H](N(C)C)[C@H]2O)[C@](C)(O)C[C@@H](C)CN[C@H](C)[C@@H](O)[C@]1(C)O", "IC50": "65 µM"}
{"RECORD_SMILES": "C=CCO[C@]1(C)C[C@@H](C)CN(Cc2ccccc2)[C@H](C)[C@@H](O)[C@](C)(O)[C@@H](CC)OC(=O)[C@H](C)[C@@H](O[C@H]2C[C@@](C)(OC)[C@@H](O)[C@H](C)O2)[C@H](C)[C@H]1O[C@@H]1O[C@H](C)C[C@H](N(C)C)[C@H]1O", "IC50": "5 µM"}
{"RECORD_SMILES": "CC[C@H]1OC(=O)[C@H](C)[C@@H](O[C@H]2C[C@@](C)(OC)[C@@H](O)[C@H](C)O2)[C@H](C)[C@@H](O[C@@H]2O[C@H](C)C[C@H](N(C)C)[C@H]2O)[C@](C)(OC)C[C@@H](C)C(=O)[C@H](C)[C@@H](O)[C@]1(C)O", "IC50": "31 µM"}
